Known pIC50 of a selection of compounds
- measured on: PAR2 (HT-29 cells) (Homo sapiens, UniProt P55085)
- Construct: host or cells: HT-29
- Sequence (P55085 26-397): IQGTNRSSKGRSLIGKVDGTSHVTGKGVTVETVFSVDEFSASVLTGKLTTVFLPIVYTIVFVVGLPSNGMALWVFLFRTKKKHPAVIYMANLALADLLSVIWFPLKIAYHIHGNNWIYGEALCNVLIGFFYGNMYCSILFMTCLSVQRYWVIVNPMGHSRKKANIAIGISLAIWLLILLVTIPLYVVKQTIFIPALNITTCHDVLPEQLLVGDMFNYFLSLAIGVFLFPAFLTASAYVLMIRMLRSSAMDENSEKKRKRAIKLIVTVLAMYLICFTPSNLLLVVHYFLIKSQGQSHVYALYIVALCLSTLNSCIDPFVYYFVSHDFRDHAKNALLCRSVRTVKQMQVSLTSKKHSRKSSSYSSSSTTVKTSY
- test method notes: Ca FLIPR TETRA assay, ANTAGONIST mode, activator 3.1 U/mL trypsin
- Assay type: cell-based
- experimental setup: HT-29 cells, activator 3.1 U/mL trypsin; maximal antagonist concentration per Method (A: 0.1, 1 or 2 μM; B: 50 μM)
The scale used: pIC50 is minus the common logarithm of the concentration in molar units.

GET /value?item= CC1(C(=O)N2CCN(C(=O)c3cc4nc(-c5ccc(F)cc5)cc(C5(C)CC5)c4o3)C(C)(C)C2)CCCCC1 &field=pIC50 returns 8.09

GET /value?item= CC1(c2cc(-c3ccc(F)cc3)nc3cc(C(=O)N4CCNC(=O)C4(C)C)oc23)CC1 &field=pIC50 returns 7.74

GET /value?item= CC(C)c1cc(-c2ccc(F)cc2)nc2cc(C(=O)N3CCN(C(=O)C4(O)CCOCC4)[C@@H](C)C3)oc12 &field=pIC50 returns 5.42

GET /value?item= CC(C)c1nc(-c2ccc(F)cc2)nc2cc(C(=O)N3CCNC(=O)C3(C)C)oc12 &field=pIC50 returns 5.72

GET /value?item= CC(C)(C)c1cc(-c2ccc(C(F)(F)F)cc2)nc2cc(C(=O)N3CCNC(=O)C3(C)C)oc12 &field=pIC50 returns 7.59

GET /value?item= CC1(C)CCC(c2cc(C(C)(C)C)c3oc(C(=O)N4CCN(c5ccccn5)CC4(C)C)cc3n2)CC1 &field=pIC50 returns 7.29

GET /value?item= CC(C)(C)c1cc(-c2ccc(C(F)(F)F)cc2)nc2cc(C(=O)N3CCN(C(=O)c4nnc[nH]4)CC3(C)C)oc12 &field=pIC50 returns 8.12

GET /value?item= CC(C)c1cc(-c2ccc(F)cc2)nc2cc(C(=O)N3CCN(C(=O)C4(O)CCC4)CC3(C)C)oc12 &field=pIC50 returns 7.55

GET /value?item= Cc1cc(N2CCN(C(=O)c3cc4nc(-c5ccc(Cl)c(F)c5)cc(C(C)(C)C)c4o3)C(C)(C)C2=O)[nH]n1 &field=pIC50 returns 7.84

GET /value?item= CC(C)c1cc(-c2ccc(F)cc2)nc2cc(C(=O)N3CCN(C(=O)c4ccno4)CC3(C)C)oc12 &field=pIC50 returns 8.35

GET /value?item= CC(C)c1cc(-c2ccc(F)cc2)nc2cc(C(=O)N3CCN(C(=O)[C@H](O)CC(C)(C)C)C[C@@H]3C)oc12 &field=pIC50 returns 6.08

GET /value?item= CC(C)c1cc(-c2ccc(F)cc2)nc2cc(C(=O)N3CCN(C(=O)C(O)c4ccc(F)cc4)[C@@H](C)C3)oc12 (stereo partly shown) &field=pIC50 returns 8.11

GET /value?item= CC(C)(C)c1cc(-c2ccc(Cl)cc2)nc2cc(C(=O)N3CCNC(=O)C3(C)C)oc12 [Example I-153] &field=pIC50 returns 8.52

GET /value?item= CC1(c2cc(-c3ccc(F)cc3)nc3cc(C(=O)N4CCN(C(=O)[C@H](O)Cc5ccccc5)CC4(C)C)oc23)CC1 &field=pIC50 returns 8.07

GET /value?item= Cc1cc(C(=O)N2CCN(C(=O)c3cc4nc(-c5ccc(F)cc5)cc(C(C)(C)C)c4o3)C(C)(C)C2)no1 &field=pIC50 returns 9.00

GET /value?item= CC(C)c1cc(-c2ccc(F)cc2)nc2cc(C(=O)N3CCN(C(=O)C(C)(C)C)CC3(C)C)oc12 &field=pIC50 returns 8.52

GET /value?item= COCCOCC(=O)N1CCN(C(=O)c2cc3nc(-c4ccc(F)cc4)cc(C4(C)CC4)c3o2)C(C)(C)C1 &field=pIC50 returns 7.17

GET /value?item= CC(C)(C)c1cc(C2CCCCCC2)nc2cc(C(=O)N3CCNC(=O)C3(C)C)oc12 &field=pIC50 returns 7.59

GET /value?item= CC(C)c1cc(-c2ccc(F)cc2)nc2cc(C(=O)N3CCN(C(=O)C4CCCC4)CC3(C)C)oc12 &field=pIC50 returns 8.33

GET /value?item= CC1(C(=O)O)CCC(C(=O)N2CCN(C(=O)c3cc4nc(-c5ccc(F)cc5)cc(C(C)(C)C)c4o3)C(C)(C)C2)CC1 (stereo not shown) &field=pIC50 returns 9.10

GET /value?item= CC(C)c1cc(-c2ccc(F)cc2)nc2cc(C(=O)N3CCN(C(=O)C(C)(C)O)C[C@H]3C)oc12 &field=pIC50 returns 5.04

GET /value?item= COCC(=O)N1CCN(C(=O)c2cc3nc(-c4ccc(F)cc4)cc(C(C)C)c3o2)C(C)(C)C1 &field=pIC50 returns 7.17

GET /value?item= C[C@H]1CN(C(=O)c2cc3nc(-c4ccc(F)cc4)cc(C4(C)CC4)c3o2)CCN1C(=O)C1(C#N)CC1 &field=pIC50 returns 6.25

GET /value?item= CCS(=O)(=O)NCC(=O)N1CCN(C(=O)c2cc3nc(C4CC5(CCC5)C4)cc(C(C)(C)C)c3o2)C(C)(C)C1 &field=pIC50 returns 8.17

GET /value?item= Cc1cncnc1N1CCN(C(=O)c2cc3nc(-c4ccc(Cl)cc4)cc(C(C)(C)C)c3o2)C(C)(C)C1 &field=pIC50 returns 8.26

GET /value?item= CC(C)(C)c1cc(-c2ccc(F)cc2)nc2cc(C(=O)N3CCN(C(=O)C4(C(=O)O)CC4)CC3(C)C)oc12 &field=pIC50 returns 6.72

GET /value?item= CC(C)c1cc(-c2ccc(F)cc2)nc2cc(C(=O)N3CCN(C(=O)C4CCOC4)[C@@H](C)C3)oc12 (stereo partly shown) &field=pIC50 returns 5.33

GET /value?item= CC(C)c1cc(-c2ccc(F)cc2)nc2cc(C(=O)N3CCN(C(=O)CC(C)(C)C)CC3(C)C)oc12 &field=pIC50 returns 8.59
